PROCEDURE DETAILS: PSAC antagonists in infected red cells, primary screen, cell-based, P. falciparum Indochina, OD700, 1 h (AID 1154)
TEST PARAMETERS: P. falciparum Indochina infected RBC osmotic lysis, higher = more signal, called active from +8 up or from −8 down
ASSAY READOUT: z-score
Could you respond with only the numeric value?

INPUT: Look up and report measured z-score for this entry: O=C(NN=C1C[C@@H](O)[C@@H](O)[C@@H]2[C@@H]3C(=O)N(c4cccc(Oc5ccccc5)c4)C(=O)[C@@H]3CC[C@@H]12)OCc1ccccc1
OUTPUT: 2.57

INPUT: Look up and report measured z-score for this entry: COc1ccccc1CN1C(=O)c2ccccc2[C@@H](C(=O)NCC(F)(F)F)[C@@H]1c1ccc(CO)cc1
OUTPUT: 2.54

INPUT: Look up and report measured z-score for this entry: CC(=O)OC[C@H]1O[C@H](C#CCCCc2ccccc2)C=C[C@@H]1OC(C)=O
OUTPUT: 3.35

INPUT: Look up and report measured z-score for this entry: Cc1ccc(F)cc1S(=O)(=O)N[C@@H]1CCN(Cc2ccc(CC(C)C)cc2)C1
OUTPUT: 2.71

INPUT: Look up and report measured z-score for this entry: CCN1C(=O)[C@H]2[C@H]3[C@H](O)[C@H](O)CC(=NOC[C@@H](C)[C@H](OCc4ccccc4)C(C)C)[C@@H]3CC[C@H]2C1=O
OUTPUT: 0.551

INPUT: Look up and report measured z-score for this entry: CCOC(=O)NN=C1C[C@@H](O)[C@@H](O)[C@@H]2[C@@H]3C(=O)N(CC)C(=O)[C@@H]3CC[C@@H]12
OUTPUT: -0.485

INPUT: Look up and report measured z-score for this entry: Cc1ccc(S(=O)(=O)N[C@@H]2COC(=O)[C@H](C)COC(=O)CC=C[C@H]2C)cc1
OUTPUT: 0.345

INPUT: Look up and report measured z-score for this entry: CO[C@H]1COC(=O)[C@@H]2CCCN2C(=O)[C@@H](C)COC(=O)CC=C[C@@H]1C
OUTPUT: 0.464

###

PROCEDURE DETAILS: E. coli growth modulation, two-sided OD650, primary screen, E. coli filamentation project, strain DRC41, 24 h (AID 1093);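 also: MC1000 strain lacking acrAB efflux and sulA so SOS filamentation is blocked; test concentration not given here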
TEST PARAMETERS: OD650, 24 h, higher = more signal, called active from +8 up or from −8 down
ASSAY READOUT: z-score
Could you respond with only the numeric value?

INPUT: Look up and report measured z-score for this entry: Cc1cc2c(nc1C)CCCN2CC(C)ON=C1[C@H]2CCn3c(=O)n(-c4ccccc4)c(=O)n3[C@H]2[C@H](O)[C@@H]2O[C@H]12 (some centres not stated)
OUTPUT: -0.414

INPUT: Look up and report measured z-score for this entry: CCN1C(=O)[C@H]2[C@H]3[C@H](O)[C@H](O)CC(=NOC(C)CN4CCCCc5nc(C)c(C)cc54)[C@@H]3CC[C@H]2C1=O (some centres not stated)
OUTPUT: 1.03

INPUT: Look up and report measured z-score for this entry: O=C1[C@H]2[C@H]3[C@H](O)[C@H](O)CC(=NOC[C@@H](O)COCc4ccco4)[C@H]3CC[C@H]2C(=O)N1Cc1ccc2c(c1)OCO2
OUTPUT: 0.617

INPUT: Look up and report measured z-score for this entry: C[C@H]1CC[C@@H](C(=O)O)N[C@@H]1c1ccc(C#CCN(C)C)cc1
OUTPUT: 0.657

INPUT: Look up and report measured z-score for this entry: CC(C)C[C@@H]1NC(=O)[C@H]2C[C@@H](C(=O)NCCCCCCN(C)C)[C@@H](c3cccc(OCCO)c3)N2C1=O
OUTPUT: -0.0145

INPUT: Look up and report measured z-score for this entry: COCCOC(=O)N1C(=O)[C@@]2(c3ccccc31)[C@H](C(N)=O)[C@H]1C(=O)O[C@H](c3ccccc3)[C@H](c3ccccc3)N1[C@@H]2c1ccccc1OCCO
OUTPUT: 1.24

INPUT: Look up and report measured z-score for this entry: COc1ccc(O[C@H]2C=C[C@@H](c3ccccc3)O[C@@H]2CON=C[C@@H](C)[C@H](OCc2ccccc2)C(C)C)cc1
OUTPUT: -0.349
